These data points were gathered from paper PMC11589101.

- targetSystem: UniProt P02766
- experimentNotes: FITC-T4 TTR-binding assay, initial (original) method
- studyConditions: 0.3 uM
valueKind: % FITCT4 bound to TTR
Include the unit after the number when you answer.

A selection of reference data follows.
> print(dat)
                                   compound    targetsystem              valuekind  experimentalresult
1  O=C(O)C(F)(F)C(F)(F)C(F)(F)C(F)(F)C(F)(F)C(F)(F)C(F)(F)F  UniProt P02766  % FITCT4 bound to TTR             45.526%
2                         Cc1cccc2[nH]nnc12  UniProt P02766  % FITCT4 bound to TTR            93.5915%
3  O=S(=O)(O)C(F)(F)C(F)(F)C(F)(F)C(F)(F)C(F)(F)C(F)(F)C(F)(F)C(F)(F)F  UniProt P02766  % FITCT4 bound to TTR            36.6572%
4   O=S(=O)(O)C(F)(F)C(F)(F)C(F)(F)C(F)(F)F  UniProt P02766  % FITCT4 bound to TTR            93.7406%
5  O=S(=O)(O)C(F)(F)C(F)(F)C(F)(F)C(F)(F)C(F)(F)C(F)(F)F  UniProt P02766  % FITCT4 bound to TTR            47.4669%
6  O=C(O)C(F)(OC(F)(F)C(F)(F)C(F)(F)F)C(F)(F)F (stereo not drawn) [GenX, Hexafluoropropylene oxide dimer acid]  UniProt P02766  % FITCT4 bound to TTR            91.7718%

(Q) GET /values?readout=% FITCT4 bound to TTR&item= `O=C(O)C(F)(F)C(F)(F)C(F)(F)C(F)(F)C(F)(F)F`
(A) 81.4177%

(Q) Name the reported % FITCT4 bound to TTR value associated with the compound CC1COC(Cn2cncn2)(c2ccc(Oc3ccc(Cl)cc3)cc2Cl)O1 (stereo not drawn)
(A) 86.9998%

(Q) Which value of % FITCT4 bound to TTR has been reported for CC(C)(C)C(O)C(Oc1ccc(-c2ccccc2)cc1)n1cncn1 (stereo not drawn) in the records?
(A) 88.4453%

====

- Test system: thyroid hormone receptor (TR)
- experimentNotes: TR-Luc reporter gene assay, antagonism (coexposure with 110 pM T3)
- Type: cell-based
- studyConditions: 1 uM, coexposure with 110 pM T3
compounds and their reported TR antagonism % max combined
Enter your answer as a number in %; do not include the unit.

Please review the entries below; each comes with its answer.
> print(dat)
                                   compound  readingunit  experimentalresult
1  CC(C)(C)C(O)C(Oc1ccc(Cl)cc1)n1cncn1 (stereo not shown)            %               98.41
2  CC1COC(Cn2cncn2)(c2ccc(Oc3ccc(Cl)cc3)cc2Cl)O1 (stereo not shown)            %               84.26
3                   CCNc1nc(NC(C)C)nc(SC)n1            %               87.59

(Q) Provide value of TR antagonism % max combined for this record tested with thyroid hormone receptor (TR): CCCC1COC(Cn2cncn2)(c2ccc(Cl)cc2Cl)O1 (stereo not shown)
(A) 99.85
